Where do the numbers come from? From ChEMBL document CHEMBL3885881.

Assignment: determine reported CARBON DIOXIDE for the given molecules.
# Species on record: Rattus norvegicus
# experiment: DrugMatrix - Regimen: Daily Repeat
# Assay type: toxicity, organism-based, Sprague-Dawley
# Set-up: regimen Daily Repeat, gender Male, age 6-8 weeks
# run conditions: in vivo, po, 0 mg/kg, 120 h, tissue Plasma, route oral GAVAGE, dose level Control, time 5 day, vehicle 100 % WATER
Answers are plain numbers, in mmol/L.

| molecule | CARBON DIOXIDE [mmol/L] |
| --- | --- |
| CC(CCc1ccccc1)NCC(O)c1ccc(O)c(C(N)=O)c1 (centres undefined) | 26.5 |
| Cc1cc(NS(=O)(=O)c2ccc(N)cc2)no1 | 26.33 |
| COc1cccc(C2(O)CCCCC2CN(C)C)c1 (centres undefined) | 31 |
| CNCCC=C1c2ccccc2CCc2ccccc21 | 29.33 |
| CC1(C)S[C@@H]2[C@H](NC(=O)[C@H](N)c3ccc(O)cc3)C(=O)N2[C@H]1C(=O)O | 32.33 |
| Clc1ccc(C(c2ccccc2Cl)C(Cl)Cl)cc1 (centres undefined) | 33.83 |
| COc1cc2c(N3CCN(C(=O)Nc4ccc(OC(C)C)cc4)CC3)ncnc2cc1OCCCN1CCCCC1 | 38.83 |
| Nc1ccc(S(=O)(=O)Nc2ccnn2-c2ccccc2)cc1 | 27.17 |

In: Please report the recorded CARBON DIOXIDE for NC(=O)c1ncn([C@@H]2O[C@H](CO)[C@@H](O)[C@H]2O)n1 .
Out: 27.17

---

Assignment: determine reported ALANINE AMINOTRANSFERASE for the given molecules.
# Species on record: Rattus norvegicus
# experiment: DrugMatrix - Regimen: Daily Repeat
# Format: toxicity, organism-based, Sprague-Dawley
# Design: regimen Daily Repeat, gender Male, age 6-8 weeks
# run conditions: in vivo, po, 0 mg/kg, 120 h, tissue Plasma, route oral GAVAGE, dose level Control, time 5 day, […]
Answer with the figure and its unit, nothing else.

Observe how each entry below is paired with its result.
| molecule | reported property | endpoint value |
| --- | --- | --- |
| COc1ccc2c(c1)c(CC(=O)OCC(=O)O)c(C)n2C(=O)c1ccc(Cl)cc1 | ALANINE AMINOTRANSFERASE | 54.83 u/L |
| O=[N+]([O-])c1cc([As](=O)(O)O)ccc1O | ALANINE AMINOTRANSFERASE | 33.2 u/L |

I'm hoping you can list ALANINE AMINOTRANSFERASE for every molecule here, please.
1. CC(=O)[C@H]1CC[C@H]2[C@@H]3CCC4=CC(=O)CC[C@]4(C)[C@H]3CC[C@]12C
2. Cn1cnc([N+](=O)[O-])c1Sc1ncnc2nc[nH]c12

Out:
1: 57.83 u/L; 2: 59.67 u/L

I'm hoping you can list ALANINE AMINOTRANSFERASE for every molecule here, please.
1. CC(C)n1c(/C=C/C(O)CC(O)CC(=O)O)c(-c2ccc(F)cc2)c2ccccc21 (stereo unspecified)
2. Oc1c(Cl)cc(Cl)cc1Sc1cc(Cl)cc(Cl)c1O

Out:
["93.67 u/L", "93.67 u/L"]

---

# Organism: Rattus norvegicus
# experiment: DrugMatrix - Regimen: Daily Repeat
# Format: toxicity, organism-based, Sprague-Dawley
# Design: regimen Daily Repeat, gender Male, age 6-8 weeks
# run conditions: in vivo, po, 0 mg/kg, 120 h, tissue Blood, route oral GAVAGE, dose level Control, time 5 day, vehicle .5 % CMC
Threshold check on LYMPHOCYTE: strictly below 90% is Fulfilled; on or above 90% is Not fulfilled.

Worked set:
| molecule | group |
| --- | --- |
| CN1C(C(=O)Nc2ccccn2)=C(O)c2ccccc2S1(=O)=O [PIROXICAM] | Fulfilled |
| COC(=O)c1ccc(O)cc1 [METHYLPARABEN] | Not fulfilled |
| O=c1cc(-c2ccccc2)oc2c1ccc1ccccc12 [ALPHA-NAPHTHOFLAVONE] | Fulfilled |
| CCC[C@@H]1C[C@@H](C(=O)N[C@@H]([C@H]2O[C@H](SC)[C@H](O)[C@@H](O)[C@H]2O)[C@@H](C)O)N(C)C1 [LINCOMYCIN] | Not fulfilled |

Turning now to a further record.
In: Hello, is LYMPHOCYTE of the following molecule strictly smaller than 90%? CCc1cccc2c3c([nH]c12)C(CC)(CC(=O)O)OCC3 (centres undefined) [ETODOLAC]
Out: Fulfilled
